System: Atrial natriuretic peptide receptor 1 (Oryctolagus cuniculus)
Assay procedure: Binding affinity towards the low-affinity site atrionatriuretic peptide receptor 1 of rabbit adrenal membrane
A collection of molecules and their measured KL
// return the numeric value with its unit appended

1) CC[C@H](C)[C@@H]1NC(=O)[C@@H](CCCN=C(N)N)NC(=O)CNC(=O)CNC(=O)[C@H](Cc2ccccc2)NC(=O)[C@H](NC(=O)[C@H](CO)NC(=O)[C@@H](N)CO)CSSC[C@H](C(=O)N[C@H](Cc2ccccc2)C(=O)N[C@H](CCCN=C(N)N)C(=O)O)NC(=O)[C@@H]([C@@H](C)CC)NC(=O)[C@H](CCCN=C(N)N)NC(=O)[C@@H](CC(=O)O)NC1=O; 2000 nM
2) CC[C@H](C)[C@@H]1NC(=O)[C@H](CCCN=C(N)N)NC(=O)[C@@H](CC(=O)O)NC(=O)[C@H]([C@@H](C)CC)NC(=O)[C@H](CCCNC(N)=O)NC(=O)CNC(=O)CNC(=O)[C@@H](Cc2ccccc2)NC(=O)[C@@H](C)NC(=O)[C@@H](NC(=O)[C@H](CO)NC(=O)[C@@H](N)CO)CSSC[C@@H](C(=O)N[C@H](Cc2ccccc2)C(=O)N[C@H](CCCN=C(N)N)C(=O)O)NC1=O; 6900 nM

With those in mind, consider the next molecule.
Input: Form field: reported KL of CC[C@H](C)[C@@H]1NC(=O)[C@@H](CCCN=C(N)N)NC(=O)CNC(=O)CNC(=O)[C@@H](Cc2ccccc2)NC(=O)C(C)NC(=O)[C@H](NC(=O)CCCCCCCN)CSSC[C@H](C(=O)N[C@H](Cc2ccccc2)C(=O)N[C@H](CCCN=C(N)N)C(=O)O)NC(=O)[C@@H]([C@@H](C)CC)NC(=O)[C@H](CCCN=C(N)N)NC(=O)[C@@H](CC(=O)O)NC1=O (stereo in doubt)
Output: 790 nM

Source of measurements: ChEMBL document CHEMBL1125386
